Record: compiled Ki on Adenosine receptor A2a (Homo sapiens, UniProt P29274) from multiple reports.
Sequence (P29274 whole entry): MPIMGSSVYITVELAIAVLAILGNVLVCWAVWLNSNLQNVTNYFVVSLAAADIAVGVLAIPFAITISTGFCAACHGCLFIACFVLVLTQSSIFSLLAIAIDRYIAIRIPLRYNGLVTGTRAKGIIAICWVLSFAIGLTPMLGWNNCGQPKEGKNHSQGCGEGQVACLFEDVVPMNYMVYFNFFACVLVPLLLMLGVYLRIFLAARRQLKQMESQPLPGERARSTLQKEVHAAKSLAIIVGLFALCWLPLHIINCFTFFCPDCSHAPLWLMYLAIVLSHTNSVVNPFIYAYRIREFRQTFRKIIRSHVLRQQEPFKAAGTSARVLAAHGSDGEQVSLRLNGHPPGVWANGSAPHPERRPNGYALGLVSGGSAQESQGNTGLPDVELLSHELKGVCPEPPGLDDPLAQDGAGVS
EXPERIMENTAL ENDPOINT: Ki

CHEMICAL STRING: O=c1[nH]c2nc(-c3cnn(Cc4cc(-c5ccc(C(F)(F)F)cc5)on4)c3)[nH]c2c(=O)n1CC1CC1
EXPERIMENTAL ENDPOINT: Ki
REPORTED RESULT: > 5 µM
//
CHEMICAL STRING: COc1ccc(C(=O)Nc2nc(-c3ccccc3)c(-c3nc4ccccc4c(=O)n3-c3ccccc3)s2)cc1
EXPERIMENTAL ENDPOINT: Ki
REPORTED RESULT: > 1 µM
//
CHEMICAL STRING: Nc1ncnc2c1nc(Br)n2C1CCCCCC1
EXPERIMENTAL ENDPOINT: Ki
REPORTED RESULT: > 100 µM
//
CHEMICAL STRING: CN(C)c1nc(Nc2ccccc2)sc1C(=O)Nc1sc2c(c1C#N)CCCC2
EXPERIMENTAL ENDPOINT: Ki
REPORTED RESULT: > 30 µM
